Values were extracted from ChEMBL document CHEMBL4431356.

The entries below come with measured IC50 values attached.
target.desc: Separin (Homo sapiens, UniProt Q14674)
Sequence (Q14674 whole entry): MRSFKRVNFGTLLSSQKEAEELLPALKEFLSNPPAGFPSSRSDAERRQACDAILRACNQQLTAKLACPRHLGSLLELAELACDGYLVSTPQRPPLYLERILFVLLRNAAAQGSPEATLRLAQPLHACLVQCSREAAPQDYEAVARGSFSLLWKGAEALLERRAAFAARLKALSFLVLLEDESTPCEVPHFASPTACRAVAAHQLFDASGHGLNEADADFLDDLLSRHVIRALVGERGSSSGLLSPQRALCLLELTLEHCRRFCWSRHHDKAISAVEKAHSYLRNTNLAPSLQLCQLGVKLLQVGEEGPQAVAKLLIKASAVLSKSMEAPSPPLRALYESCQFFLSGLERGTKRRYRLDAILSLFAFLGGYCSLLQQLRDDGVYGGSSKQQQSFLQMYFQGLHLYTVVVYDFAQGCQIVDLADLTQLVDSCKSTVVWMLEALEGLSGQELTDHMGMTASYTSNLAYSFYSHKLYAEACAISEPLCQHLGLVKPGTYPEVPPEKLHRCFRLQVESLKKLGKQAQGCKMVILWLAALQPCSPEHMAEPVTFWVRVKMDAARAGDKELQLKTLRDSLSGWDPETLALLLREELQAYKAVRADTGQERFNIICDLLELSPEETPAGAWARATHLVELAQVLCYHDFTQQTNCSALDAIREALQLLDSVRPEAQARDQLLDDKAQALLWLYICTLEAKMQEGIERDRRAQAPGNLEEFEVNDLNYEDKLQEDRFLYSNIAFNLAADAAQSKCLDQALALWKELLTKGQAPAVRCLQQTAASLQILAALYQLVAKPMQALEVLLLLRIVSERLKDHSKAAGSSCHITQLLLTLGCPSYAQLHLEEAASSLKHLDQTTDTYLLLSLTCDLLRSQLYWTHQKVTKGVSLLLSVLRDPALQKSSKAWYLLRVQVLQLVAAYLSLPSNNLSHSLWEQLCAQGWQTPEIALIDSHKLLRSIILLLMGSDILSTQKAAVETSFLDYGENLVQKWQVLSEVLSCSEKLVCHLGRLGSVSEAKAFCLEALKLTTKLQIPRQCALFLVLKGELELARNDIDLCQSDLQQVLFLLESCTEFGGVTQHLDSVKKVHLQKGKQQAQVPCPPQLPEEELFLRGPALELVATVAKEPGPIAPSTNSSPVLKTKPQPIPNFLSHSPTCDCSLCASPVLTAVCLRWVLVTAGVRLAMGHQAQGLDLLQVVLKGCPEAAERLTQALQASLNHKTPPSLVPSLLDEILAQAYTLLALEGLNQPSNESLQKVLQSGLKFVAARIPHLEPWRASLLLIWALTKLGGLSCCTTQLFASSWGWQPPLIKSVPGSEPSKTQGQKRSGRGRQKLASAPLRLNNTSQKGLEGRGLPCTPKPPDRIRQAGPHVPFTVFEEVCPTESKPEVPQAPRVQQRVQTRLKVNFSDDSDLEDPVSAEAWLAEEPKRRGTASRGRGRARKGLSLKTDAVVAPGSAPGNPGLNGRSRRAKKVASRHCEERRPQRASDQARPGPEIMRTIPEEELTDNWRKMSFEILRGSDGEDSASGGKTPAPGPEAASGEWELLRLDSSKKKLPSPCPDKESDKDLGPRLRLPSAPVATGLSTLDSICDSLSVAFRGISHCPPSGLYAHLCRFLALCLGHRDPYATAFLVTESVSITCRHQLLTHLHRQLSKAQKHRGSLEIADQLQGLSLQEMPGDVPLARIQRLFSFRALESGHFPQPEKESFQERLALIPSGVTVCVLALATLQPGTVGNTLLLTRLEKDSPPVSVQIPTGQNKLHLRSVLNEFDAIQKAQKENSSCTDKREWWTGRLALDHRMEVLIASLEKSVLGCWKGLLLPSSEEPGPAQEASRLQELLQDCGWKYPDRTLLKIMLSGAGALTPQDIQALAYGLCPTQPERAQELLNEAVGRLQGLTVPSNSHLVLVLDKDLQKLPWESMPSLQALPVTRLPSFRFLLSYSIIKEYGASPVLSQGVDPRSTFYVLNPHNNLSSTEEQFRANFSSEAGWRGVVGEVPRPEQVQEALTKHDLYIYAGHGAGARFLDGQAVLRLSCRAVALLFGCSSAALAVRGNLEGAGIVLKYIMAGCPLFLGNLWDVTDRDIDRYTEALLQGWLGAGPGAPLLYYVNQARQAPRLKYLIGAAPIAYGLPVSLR
method.notes: Inhibition of epitope-tagged separase (unknown origin) using Rad21-MCA as substrate preincubated for 1 hr followed by substrate addition measured after 3 hrs by fluorescence assay
quantity.kind: IC50

> print(dat)
                            structure.smiles                             target.desc  reported.value
 1  COC(=O)c1ccc2c(c1)[n+]([O-])c(C)c(C)[n+]2[O-]  Separin (Homo sapiens, UniProt Q14674)        > 100 µM
 2   CC1(C)[N+]([O-])=c2ccc(Br)cc2=[N+]1[O-]  Separin (Homo sapiens, UniProt Q14674)        > 100 µM
 3  CC1(C)[N+]([O-])=c2ccc(C(F)(F)F)cc2=[N+]1[O-]  Separin (Homo sapiens, UniProt Q14674)        > 100 µM
 4  CCOc1cc2c(cc1F)=[N+]([O-])C(C)(C)[N+]=2[O-]  Separin (Homo sapiens, UniProt Q14674)        > 100 µM
 5  CCOc1ccc2c(c1)=[N+]([O-])C(C)(C)[N+]=2[O-]  Separin (Homo sapiens, UniProt Q14674)        > 100 µM
 6                 O=[N+]([O-])c1ccc2nonc2c1  Separin (Homo sapiens, UniProt Q14674)        > 100 µM
 7  CC1(C)[N+]([O-])=c2ccc(-c3ccccc3)cc2=[N+]1[O-]  Separin (Homo sapiens, UniProt Q14674)        > 100 µM
 8    CC1(C)[N+]([O-])=c2ccc(F)cc2=[N+]1[O-]  Separin (Homo sapiens, UniProt Q14674)        > 100 µM
 9  CC1(C)[N+]([O-])=c2ccc([N+](=O)[O-])cc2=[N+]1[O-]  Separin (Homo sapiens, UniProt Q14674)         17.8 µM
10  COC(=O)c1ccc2c(c1)=[N+]([O-])C(C)(C)[N+]=2[O-]  Separin (Homo sapiens, UniProt Q14674)        > 100 µM
11  CCCCNc1ccc2c(c1)=[N+]([O-])C(C)(C)[N+]=2[O-]  Separin (Homo sapiens, UniProt Q14674)        > 100 µM
12  O=[N+]([O-])c1ccc2c(c1)=[N+]([O-])C1(CCCCC1)[N+]=2[O-]  Separin (Homo sapiens, UniProt Q14674)         16.2 µM
13  CC1(C)[N+]([O-])=c2ccc(C(=O)O)cc2=[N+]1[O-]  Separin (Homo sapiens, UniProt Q14674)        > 100 µM

* * *

target.desc: Separin (Homo sapiens, UniProt Q14674)
method.notes: Inhibition of human ZZ TEV4-tagged separase expressed in human 293T cells using (Rad21)2-Rh110 as substrate preincubated for 1 hr followed by substrate addition measured after 3 hrs by fluorescence assay
quantity.kind: IC50 (µM)

> print(dat)
                           structure.smiles                             target.desc  quantity.kind  unit.string  reported.value
1  CC1(C)[N+]([O-])=c2ccc([N+](=O)[O-])cc2=[N+]1[O-]  Separin (Homo sapiens, UniProt Q14674)           IC50           µM              15
